- EXPERIMENTAL TARGET: hCB1 receptors (Homo sapiens)
- Sequence (P21554 whole entry): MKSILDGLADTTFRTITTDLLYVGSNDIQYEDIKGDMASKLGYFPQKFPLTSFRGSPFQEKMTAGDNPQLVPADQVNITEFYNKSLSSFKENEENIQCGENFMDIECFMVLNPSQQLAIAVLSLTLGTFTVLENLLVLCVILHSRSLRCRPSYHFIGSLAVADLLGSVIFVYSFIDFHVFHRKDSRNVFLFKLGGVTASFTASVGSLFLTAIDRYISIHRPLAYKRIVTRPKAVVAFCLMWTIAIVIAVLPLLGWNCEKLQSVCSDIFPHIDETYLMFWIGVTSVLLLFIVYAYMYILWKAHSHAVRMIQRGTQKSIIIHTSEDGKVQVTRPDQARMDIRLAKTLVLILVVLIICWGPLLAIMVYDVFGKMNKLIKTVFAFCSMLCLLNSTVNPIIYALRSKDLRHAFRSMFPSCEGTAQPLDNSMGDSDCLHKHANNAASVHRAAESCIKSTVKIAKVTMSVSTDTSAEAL
- PROCEDURE SUMMARY: [35S]GTPγS binding, modulation of G-protein activity in CHO-hCB1 cell membranes
- Assay type: biochemical
- STATED CONDITIONS: 10 μM
MEASUREMENT NAME: Intrinsic activity at hCB1 receptors (modulation of [35S]GTPγS binding)

# INPUT SMILES, RESULT
data = [
    ("O=C1/C(=C/c2cn(Cc3ccc(F)cc3)c3ncccc23)N2CCC1CC2", "neutral antagonist"),
    ("O=C1/C(=C/c2cn(Cc3ccccc3)c3ncccc23)N2CCC1CC2", "neutral antagonist"),
]

====

- EXPERIMENTAL TARGET: hCB2 receptors (Homo sapiens)
- Sequence (P34972 whole entry): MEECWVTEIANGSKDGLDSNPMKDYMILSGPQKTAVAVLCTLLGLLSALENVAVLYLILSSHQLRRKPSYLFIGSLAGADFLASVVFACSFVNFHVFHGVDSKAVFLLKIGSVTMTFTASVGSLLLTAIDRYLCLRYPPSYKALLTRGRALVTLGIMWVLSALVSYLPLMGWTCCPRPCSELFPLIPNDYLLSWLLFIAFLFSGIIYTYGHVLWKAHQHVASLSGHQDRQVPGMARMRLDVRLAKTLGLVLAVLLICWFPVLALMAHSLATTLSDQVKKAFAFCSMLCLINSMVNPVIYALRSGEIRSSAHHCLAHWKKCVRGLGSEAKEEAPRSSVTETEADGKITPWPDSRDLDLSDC
- PROCEDURE SUMMARY: [35S]GTPγS binding, modulation of G-protein activity in CHO-hCB2 cell membranes
- Type: biochemical
- STATED CONDITIONS: 10 μM
MEASUREMENT NAME: Intrinsic activity at hCB2 receptors (modulation of [35S]GTPγS binding)

# MOLECULE, RESULT
rows = [
    ("O=C1/C(=C/c2cn(Cc3ccc(Br)cc3)c3ncccc23)N2CCC1CC2 [Compound 8f]", "neutral antagonist"),
    ("COc1ccc(C(=O)c2c(C)n(CCN3CCOCC3)c3cc(I)ccc23)cc1 [AM-630, reference compound]", "inverse agonist activity"),
    ("O=C1/C(=C/c2cn(Cc3ccccc3)c3ncccc23)N2CCC1CC2 [Compound 8a]", "neutral antagonist"),
    ("O=C1/C(=C/c2cn(Cc3ccc(Cl)cc3)c3ncccc23)N2CCC1CC2 [Compound 8b]", "inverse agonist activity"),
]
